Target: human TREX2 (residues M44-A279) (Homo sapiens, UniProt Q9BQ50)
Construct: human TREX2 (residues M44-A279, expressed in E. coli); His-TEV (His tag with TEV site) (N)
Sequence (Q9BQ50 44-279 isoform Q9BQ50-1): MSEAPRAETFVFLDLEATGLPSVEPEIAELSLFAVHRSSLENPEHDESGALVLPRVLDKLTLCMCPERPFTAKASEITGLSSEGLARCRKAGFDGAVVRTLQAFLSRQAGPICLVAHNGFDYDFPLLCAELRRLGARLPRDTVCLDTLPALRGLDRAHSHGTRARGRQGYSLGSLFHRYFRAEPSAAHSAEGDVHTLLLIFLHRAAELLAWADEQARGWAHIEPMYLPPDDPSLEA
Experiment: TREX2 Biochemical Assay (fluorescence, dsDNA substrate degradation)
Conditions: 2.5 nM TREX2, 60 nM dsDNA substrate, 25 minutes at room temperature
pIC50: −log10 of the molar value.
Item-by-item account of pIC50

> print(dat)
                                   compound  recorded.value
1  CCN(Cc1ccccc1)c1nc(C(=O)Nc2cnoc2)c(O)c(=O)n1C    5.00 to 6.00
2  CN(c1nc(C(=O)Nc2cnoc2)c(O)c(=O)n1C)C(c1ccccc1)c1ncccc1Cl (single isomer, unassigned) [Example 53]          > 6.00
3  Cc1cccnc1C(c1ccccc1)N(C)c1nc(C(=O)Nc2cnoc2)c(O)c(=O)n1C (single isomer, unassigned) [Example 59]          > 6.00

# value of pIC50, human TREX2 (residues M44-A279) (Homo sapiens, UniProt Q9BQ50), item CN(Cc1ccccc1Cl)c1nc(C(=O)Nc2cnoc2)c(O)c(=O)n1C = 5.00 to 6.00

###

Molecular target: human TREX2 (residues M44-A279) (Homo sapiens)
Construct: human TREX2 (residues M44-A279, expressed in E. coli); His-TEV (His tag with TEV site) (N)
Sequence (Q9BQ50 44-279 isoform Q9BQ50-1): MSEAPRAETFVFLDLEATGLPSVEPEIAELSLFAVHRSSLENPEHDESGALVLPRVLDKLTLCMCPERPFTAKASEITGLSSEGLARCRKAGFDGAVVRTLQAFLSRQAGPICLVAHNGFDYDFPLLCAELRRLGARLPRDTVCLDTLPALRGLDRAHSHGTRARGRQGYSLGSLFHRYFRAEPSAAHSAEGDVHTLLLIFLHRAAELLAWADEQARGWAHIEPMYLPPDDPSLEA
Experiment: TREX2 Biochemical Assay (fluorescence, dsDNA substrate degradation)
Details: 2.5 nM TREX2, 60 nM dsDNA substrate, 25 minutes at room temperature
pIC50: −log10 of the molar value.
Endpoint label: pIC50

Past entries and their recorded results:
> print(dat)
                                   compound  recorded.value
1  CN(C)C(=O)c1ccccc1CN(C)c1nc(C(=O)Nc2cnoc2)c(O)c(=O)n1C    4.00 to 5.00
2  CN(c1nc(C(=O)Nc2cnoc2)c(O)c(=O)n1C)C(c1cccc(C#N)c1)c1ccccc1Cl (single isomer, unassigned) [Example 95]          > 6.00
3  CN(c1nc(C(=O)Nc2cnoc2)c(O)c(=O)n1C)C(c1ccccc1)c1cccc(C#N)c1 (single isomer, unassigned) [Example 50]          > 6.00
4  CN(c1nc(C(=O)Nc2cnoc2)c(O)c(=O)n1C)C(c1ccccc1)c1ccccc1C#N (single isomer, unassigned) [Example 85]          > 6.00
5  CN(c1nc(C(=O)Nc2cnoc2)c(O)c(=O)n1C)C(c1ccccc1)c1ncccc1Cl (single isomer, unassigned) [Example 54]          > 6.00

# value of pIC50, human TREX2 (residues M44-A279) (Homo sapiens), item CN(c1nc(C(=O)Nc2cnoc2)c(O)c(=O)n1C)C(c1ccccc1)C1CCOCC1 (single isomer, unassigned) [Example 46] = 5.00 to 6.00

# value of pIC50, human TREX2 (residues M44-A279) (Homo sapiens), item CC(C)N(Cc1ccccc1)c1nc(C(=O)Nc2cnoc2)c(O)c(=O)n1C = 5.00 to 6.00

From: patent US20220289728A1
